Origin of measurements: paper PMC9554980

# experiment.description: In vitro cytotoxicity, MTT assay, HepG2 cells
# Assay type: cell-based
# condition.summary: human, HepG2 cells, 5 to 80 µM
Here, each record is paired with measured CC50 at 48 h data.
endpoint.label: CC50 at 48 h (µM)

compound	endpoint.label	bound.operator	measured
COc1ccc2c(=O)c3c(O)cccc3oc2c1O [Compound 13, 1,5-dihydroxy-6-methoxyxanthone]	CC50 at 48 h	=	30.5
COc1cc2c(=O)c3c(O)cccc3oc2c(OC)c1OC [Compound 9, 1-hydroxy-5,6,7-trimethoxyxanthone]	CC50 at 48 h	>	80
COc1ccc2c(=O)c3cccc(O)c3oc2c1O [Compound 2, 4,5-dihydroxy-3-methoxyxanthone]	CC50 at 48 h	>	80
C=C(C)[C@@H]1CC[C@]2(C)CC[C@]3(C)[C@H](CC[C@@H]4[C@@]5(C)CC[C@H](O)C(C)(C)[C@@H]5CC[C@]43C)[C@@H]12	CC50 at 48 h	=	29.3
COc1cccc2c1C(=O)c1c(O)c3c(c(O)c1C2=O)C[C@@](O)(C(=O)CO)C[C@@H]3O[C@H]1C[C@H](N)[C@H](O)[C@H](C)O1 [Doxorubicin, reference compound]	CC50 at 48 h	=	1.11
O=c1c2cc(O)ccc2oc2cccc(O)c12 [Compound 4, 1,7-dihydroxyxanthone]	CC50 at 48 h	=	13.3
COc1cccc2oc3c(O)cccc3c(=O)c12 [Compound 11, 5-hydroxy-1-methoxyxanthone]	CC50 at 48 h	>	80
O=c1c2cccc(O)c2oc2c(O)c(O)ccc12 [Compound 10, 3,4,5-trihydroxyxanthone]	CC50 at 48 h	>	80
CC(C)CC(=O)c1c2c(c3oc(=O)cc(-c4ccccc4)c3c1O)C=CC(C)(C)O2	CC50 at 48 h	>	80
CC(C)CC(=O)c1c2c(c3oc(=O)cc(-c4ccccc4)c3c1O)C[C@H](C(C)(C)O)O2	CC50 at 48 h	>	80
